Data origin: ChEMBL document CHEMBL1208703

# Assay text: Oral bioavailability in rat at 3 mg/kg
# Type: ADME, organism-based
# Test settings: in vivo, read-out: Activity
Assay readout: bioavailability (%)

Smiles str | Assay readout | Reported result
Cc1n[nH]c(C)c1CC(=O)NCc1ccc(Cl)cc1Cl | bioavailability | 100

---

Catalogue of compounds with associated pIC50
# Tested system: P2X purinoceptor 7 (Homo sapiens, UniProt Q99572)
# Assay text: Antagonist activity at human P2X7 receptor ethidium bromide release assay
pIC50: −log10 of the molar value.
Assay readout: pIC50

Smiles str | Reported result
Cc1noc(C)c1CC(=O)NCc1cccc(C(F)(F)F)c1Cl | 8.60
Cc1[nH]nc(CC(C)C)c1CCC(=O)NCc1ccc(F)cc1Cl | 7.00
Cc1cc(CCC(=O)NCc2ccc(F)cc2Cl)n(C)n1 | 6.50
Cc1[nH]nc(C(F)(F)F)c1CCC(=O)NCc1ccc(F)cc1Cl | 7.90
CCc1n[nH]c(CC)c1CCC(=O)NCc1ccc(F)cc1Cl | 8.00
Cc1n[nH]c(C)c1CC(=O)NCc1ccc(F)cc1C(F)(F)F | 7.40
Cc1noc(C)c1CC(=O)NCc1ccc(Cl)cc1Cl | 7.80
Cc1n[nH]c(C)c1CC(=O)NCc1cccc(Cl)c1 | 6.80
Cc1cnn(C)c1CC(=O)NCc1cccc(C(F)(F)F)c1Cl | 8.50
Cn1ncc(F)c1CC(=O)NCc1cccc(C(F)(F)F)c1Cl | 8.00
Cc1n[nH]c(C)c1CC(=O)NCc1ccc(Cl)c(C(F)(F)F)c1 | 7.20

---

# Assay text: Excretion half life in rat at 1 mg/kg, iv
# Format: ADME, organism-based
# Set-up: dose 1 mg/kg, route intravenous
# Test settings: in vivo, read-out: beta t1/2 (converted)
Assay readout: half-life (h)

Smiles str | Assay readout | Unit symbol | Reported result
Cc1n[nH]c(C)c1CC(=O)NCc1ccc(Cl)cc1Cl | half-life | h | 1.7

---

# System: Brain
# Assay text: Drug level in rat brain at 10 mg/kg, po
# Assay type: ADME, organism-based
# Parameters: dose 10 mg/kg, route oral
# Test settings: in vivo, read-out: Drug uptake

Smiles str | Tested system | Unit symbol | concentration
Cc1n[nH]c(C)c1CC(=O)NCc1ccc(Cl)cc1Cl | Brain | µM | 4.9

---

# Tested system: P2X purinoceptor 7 (Homo sapiens, UniProt Q99572)
# Sequence (Q99572 whole entry): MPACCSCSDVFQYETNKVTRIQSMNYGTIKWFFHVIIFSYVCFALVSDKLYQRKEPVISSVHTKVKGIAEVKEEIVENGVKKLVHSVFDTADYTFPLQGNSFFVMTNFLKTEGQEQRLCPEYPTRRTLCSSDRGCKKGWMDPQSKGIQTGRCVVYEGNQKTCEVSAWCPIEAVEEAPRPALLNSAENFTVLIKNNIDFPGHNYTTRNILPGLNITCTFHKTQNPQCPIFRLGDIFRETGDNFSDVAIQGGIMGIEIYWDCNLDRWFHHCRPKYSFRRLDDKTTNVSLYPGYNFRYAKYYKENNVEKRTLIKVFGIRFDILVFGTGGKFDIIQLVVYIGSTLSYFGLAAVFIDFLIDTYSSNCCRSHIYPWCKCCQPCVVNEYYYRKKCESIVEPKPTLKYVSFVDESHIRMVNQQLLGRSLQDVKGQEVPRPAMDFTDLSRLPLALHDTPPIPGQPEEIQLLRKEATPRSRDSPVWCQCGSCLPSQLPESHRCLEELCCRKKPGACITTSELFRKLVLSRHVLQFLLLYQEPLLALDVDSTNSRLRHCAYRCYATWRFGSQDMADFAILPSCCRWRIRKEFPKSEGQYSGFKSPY
# Assay text: Antagonist activity at human P2X7 receptor ethidium bromide release assay
Assay readout: IC50 (nM)

Smiles str | Unit symbol | Comparison sign | Reported result
Cc1n[nH]c(C)c1CC(=O)NCc1ccc(F)cc1F | nM | = | 158
Cc1[nH]nc(C(C)(C)C)c1CCC(=O)NCc1ccc(F)cc1Cl | nM | = | 158
Cc1n[nH]c(C)c1CC(=O)NCc1ccccc1Cl | nM | = | 251
Cc1noc(C)c1CCC(=O)NCc1ccc(F)cc1Cl | nM | = | 63.1
Cc1n[nH]c(C)c1CC(=O)NCc1cccc(C(F)(F)F)c1Cl | nM | = | 2.51
Cc1cnn(C)c1CC(=O)NCc1ccc(Cl)cc1Cl | nM | = | 10
Cc1n[nH]c(C)c1CC(=O)NCc1ccc(Cl)cc1Cl | nM | = | 7.94
Cc1n[nH]c(C)c1CC(=O)NCc1ccc(Cl)cc1 | nM | = | 631
Cc1cnn(C)c1CCC(=O)NCc1ccc(F)cc1Cl | nM | = | 158
Cc1cn[nH]c1CCC(=O)NCc1ccc(F)cc1Cl | nM | = | 398
CC(C)c1n[nH]c(C(C)C)c1CCC(=O)NCc1ccc(F)cc1Cl | nM | = | 126
Cc1[nH]nc(-c2ccccc2)c1CCC(=O)NCc1ccc(F)cc1Cl | nM | > | 1000

---

# Assay text: Blood clearance in rat at 1 mg/kg, iv
# Format: ADME, organism-based
# Parameters: dose 1 mg/kg, route intravenous
# Test settings: whole blood

Smiles str | Unit symbol | clearance
Cc1n[nH]c(C)c1CC(=O)NCc1ccc(Cl)cc1Cl | L/h/kg | 0.54

---

# Tested system: P2X purinoceptor 7 (Rattus norvegicus, UniProt Q64663)
# Sequence (Q64663 whole entry): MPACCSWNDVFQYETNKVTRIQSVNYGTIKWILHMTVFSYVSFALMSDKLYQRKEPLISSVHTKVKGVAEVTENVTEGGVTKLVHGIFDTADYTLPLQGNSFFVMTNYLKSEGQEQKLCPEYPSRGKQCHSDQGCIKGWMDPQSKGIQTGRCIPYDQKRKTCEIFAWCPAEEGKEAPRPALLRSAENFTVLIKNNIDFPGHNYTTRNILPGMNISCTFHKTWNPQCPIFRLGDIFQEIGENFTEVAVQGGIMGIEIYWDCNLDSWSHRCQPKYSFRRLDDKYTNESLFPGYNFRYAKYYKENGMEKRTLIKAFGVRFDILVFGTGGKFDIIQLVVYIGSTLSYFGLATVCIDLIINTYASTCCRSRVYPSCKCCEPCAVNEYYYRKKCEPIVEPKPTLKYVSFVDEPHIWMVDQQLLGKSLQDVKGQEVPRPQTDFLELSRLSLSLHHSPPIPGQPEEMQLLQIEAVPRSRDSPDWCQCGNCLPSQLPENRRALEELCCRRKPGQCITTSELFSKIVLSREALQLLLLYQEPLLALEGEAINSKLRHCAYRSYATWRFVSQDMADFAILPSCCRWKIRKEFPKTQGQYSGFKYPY
# Assay text: Antagonist activity at rat P2X7 receptor ethidium bromide release assay
# Assay type: functional

Smiles str | Tested system | Unit symbol | IC50
Cc1n[nH]c(C)c1CC(=O)NCc1ccc(Cl)cc1Cl | P2X purinoceptor 7 (Rattus norvegicus, UniProt Q64663) | µM | 0.0794

---

# Assay text: Volume of distribution at steady state in rat at 1 mg/kg, iv
# Type: ADME, organism-based
# Design: dose 1 mg/kg, route intravenous
# Test settings: in vivo, read-out: Vdss

Smiles str | Vd / L/kg
Cc1n[nH]c(C)c1CC(=O)NCc1ccc(Cl)cc1Cl | 1

---

# Tested on: Blood
# Assay text: Drug level in rat blood at 10 mg/kg, po
# Format: ADME, organism-based
# Set-up: dose 10 mg/kg, route oral
# Test settings: in vivo, read-out: Drug uptake
Assay readout: concentration (µM)

Smiles str | Assay readout | Reported result
Cc1n[nH]c(C)c1CC(=O)NCc1ccc(Cl)cc1Cl | concentration | 20.9
